- Tested on: SK-OV-3 ovarian
- assay_name: NCI tumour cell line growth inhibition, 48 h
The following compounds are shown together with reported TGI values.
measured_property: TGI

>>> df
                                   compound     result
0  N#CC(C#N)=C/C=C(\Sc1nc2ccccc2s1)c1ccc(Cl)cc1  > 42.2 µM
1  Cn1c(=O)c2c(nc3n2CC(C(=O)O)N3)n(C)c1=O (centres undefined)   > 100 µM
2  O=C(Nc1ccccc1-c1nn(C(=S)Nc2ccccc2)c(=S)n(C(=S)Nc2ccccc2)c1=O)C(F)(F)F   > 100 µM
3  CCC(=C/[C@H](C)C/C=C/C(C)=C/[C@@H](C)C(=O)[C@@H](C)[C@H](O)[C@@H](C)CC)/C=C/[C@H]1OC(=O)C=C[C@@H]1C    13.4 µM
4  CCCCN(CCCC)C(=O)C(=O)C(C(=O)c1ccc(OC)cc1)c1ccc(OC)cc1 (centres undefined)   > 100 µM
5  CN(C)CC1CC/C(=C\c2ccc(O)cc2)C1=O (centres undefined)    32.3 µM
6  N#C/C(=C1/Sc2c(nc[nH]c2=O)N1c1ccccc1)c1nc2ccccc2[nH]1   > 100 µM
7  CCOC(=O)c1c(CN2CCCC2)n(-c2ccccc2)c2cc(Br)c(O)cc12    66.5 µM
8  CCN(CC)C(=S)N/N=C/c1cc([N+](=O)[O-])ccc1O    16.3 µM

----------
- System: SF-539 CNS
- assay_name: NCI tumour cell line growth inhibition, 48 h
This listing pairs molecules with measured TGI.
measured_property: TGI (µM)

                                    molecule  measured_property  reading_unit  limit_qualifier  numeric_readout
 0  CC1=Nc2ccccc2OC(C)=C1N=Nc1ccc2nc(C)[nH]c2c1                TGI            µM                >              100
 1  N#CC(C#N)=C/C=C(\Sc1nc2ccccc2s1)c1ccc(Cl)cc1                TGI            µM                =             9.89
 2  O=C(/C=C/c1ccc2c(c1)OCO2)Cc1nc2ncccc2[nH]c1=O                TGI            µM                >              100
 3             Oc1ccc(-c2nc3ccc(Br)cc3s2)cc1                TGI            µM                =             35.8
 4                CC(=O)Oc1cccc2c1C(=O)CCCC2                TGI            µM                >              100
 5          Nc1nccc(-c2c[nH]c3cc(Br)ccc23)n1                TGI            µM                >              100
 6  CC1(C)O[C@H]2OC(CO[Si](C)(C)C(C)(C)C)C(N=[N+]=[N-])[C@H]2O1 (stereo not given in full)                TGI            µM                =               36
 7  O=C(Nc1ccccc1-c1nn(C(=S)Nc2ccccc2)c(=S)n(C(=S)Nc2ccccc2)c1=O)C(F)(F)F                TGI            µM                >              100
 8  O=C1CN(c2cccc(Cl)c2)C(=O)CN1CCN1CC(=O)N(c2cccc(Cl)c2)CC1=O                TGI            µM                >              100
 9  CC(C)=CCC(O)C1=CC(=O)c2c(O)ccc(O)c2C1=O (stereo not given)                TGI            µM                =             3.01
10  Nc1nc(SCCC/C=C/I)nc2c1ncn2C1OC(COP(=O)(O)O)C(O)C1O (stereo not given)                TGI            µM                >              100
11  Nc1c(S(=O)(=O)O)cc2cc(S(=O)(=O)O)ccc2c1N=Nc1ccc(-c2ccc(N=Nc3c(N)c(S(=O)(=O)O)cc4cc(S(=O)(=O)O)ccc34)c(S(=O)(=O)O)c2)cc1                TGI            µM                >              100
12       Cc1oc2c(cc(O)c3cc(O)ccc32)c2cccc1-2                TGI            µM                >              100
13  COC(=O)[C@@H](O)[C@](O)(CCC(C)C)C(=O)O[C@@H]1C(OC)=C[C@]23CCCN2CCc2cc4c(cc2[C@H]13)OCO4                TGI            µM                =             3.16
14  COc1cc(C2CC(C)(O)Oc3cc4c(cc32)OCO4)cc(OC)c1OC (stereo not given)                TGI            µM                =            0.518
15  COCCOc1ccc(-c2nc3ccc(-c4nc5ccc(N6CCN(C)CC6)cc5[nH]4)cc3[nH]2)cc1                TGI            µM                =             2.83
16  Cc1cc(C)nc(NS(=O)(=O)c2ccc(NC(=O)c3ccc4nc5ccccc5c(Nc5ccc(S(N)(=O)=O)cc5)c4c3)cc2)n1                TGI            µM                >              100
17            CCCCCCCC/C=C\CCCCCCCCCCCC(=O)O                TGI            µM                =             40.4
18  CCC(=O)NC(Nc1cc(C)on1)(C(F)(F)F)C(F)(F)F                TGI            µM                >              100
19  O=C(OCc1ccccc1)N1CCNCCN(C(=O)OCc2ccccc2)CCNCC1                TGI            µM                =             29.2

----------
# TGI per entry
- System: A549 NSCLC
- assay_name: NCI tumour cell line growth inhibition, 48 h
measured_property: TGI (µM)

>>> df
                                    compound  measured_property  reading_unit  limit_qualifier  numeric_readout
 0            O=CNc1ccc2c(c1)C(=O)c1ccccc1-2                TGI            µM                >              100
 1  [N-]=[N+]=NC(c1ccccc1)(c1ccccc1)c1ccccc1                TGI            µM                =             34.3
 2    O=C(Cc1ccc(O)c(O)c1)NCc1c[nH]c2ccccc12                TGI            µM                >              100
 3  C=C1CCN2CC[C@@H](OC(=O)/C(C)=C\C)[C@@H]12                TGI            µM                >              100
 4                   CCCCCCCCCCn1cc[n+](C)c1                TGI            µM                =             22.5
 5  Nc1cc(NN=C(c2ccc(O)cc2)c2ccc(O)cc2)c([N+](=O)[O-])cc1[N+](=O)[O-]                TGI            µM                =             5.69
 6  C[C@]12CCC3C4=C(CCC3C1CCC2=O)C(=O)[C@H]1O[C@H]1C4=O (stereo partly specified)                TGI            µM                =             26.4
 7  Nc1nc(SCCC/C=C/I)nc2c1ncn2C1OC(COP(=O)(O)O)C(O)C1O (stereo unspecified)                TGI            µM                >              100
 8  COc1ccc(-c2[nH]c3c4c(nc5c(c24)C(=O)CC(C)(C)C5)CC(C)(C)C3)cc1                TGI            µM                >              100
 9  CC(C)[C@@H]1C=C2CC[C@H]3[C@](C)(CN)CCC[C@]3(C)[C@H]2CC1                TGI            µM                =               11
10  Nc1n[nH]c2cccc(C#Cc3cccc(C(=O)Nc4ccc(CN5CCOCC5)c(C(F)(F)F)c4)c3)c12                TGI            µM                =             11.3
11          Nc1nccc(-c2c[nH]c3cc(Br)ccc23)n1                TGI            µM                =             35.5
12            Nc1ncnc2c1[nH]c(=O)n2-c1ccccc1                TGI            µM                >              100
13   COC(=O)C(CCCN1C(=O)c2ccccc2C1=O)C(=O)OC                TGI            µM                >              100
14  COC(=O)[C@@H](O)[C@](O)(CCC(C)C)C(=O)O[C@@H]1C(OC)=C[C@]23CCCN2CCc2cc4c(cc2[C@H]13)OCO4                TGI            µM                =             5.19
15  CC(C)c1cc2c(cc1S(=O)(=O)O)[C@@]1(C)CCC[C@@](C)(C(=O)O)C1CC2 (stereo partly specified)                TGI            µM                >              100
16  CC1SC(c2ccc(F)cc2)N(NC(=O)C(O)c2ccccc2)C1=O (stereo unspecified)                TGI            µM                >              100
17  COc1ccc2cc1Oc1ccc(cc1)C[C@H]1c3cc(c(OC)cc3CCN1C)Oc1c(O)c(OC)cc3c1[C@H](C2)N(C)CC3                TGI            µM                =               75
18            O=C(NCc1ccccc1)c1n[nH][nH]c1=O                TGI            µM                >              100
19  COc1ccc(CCN=C2NC(=O)/C(=C/c3ccc4ncccc4c3)S2)cc1                TGI            µM                >               25
20          O=C(/C=C/c1ccc(O)cc1)c1ccc(O)cc1                TGI            µM                >              100

Entry source: PubChem BioAssay (NCI)
